Data provenance is PubChem BioAssay.

TARGET_OF_ASSAY: L-lactate dehydrogenase (Plasmodium falciparum (isolate CDC / Honduras)) (UniProt Q27743)
Sequence (Q27743 whole entry, looked up): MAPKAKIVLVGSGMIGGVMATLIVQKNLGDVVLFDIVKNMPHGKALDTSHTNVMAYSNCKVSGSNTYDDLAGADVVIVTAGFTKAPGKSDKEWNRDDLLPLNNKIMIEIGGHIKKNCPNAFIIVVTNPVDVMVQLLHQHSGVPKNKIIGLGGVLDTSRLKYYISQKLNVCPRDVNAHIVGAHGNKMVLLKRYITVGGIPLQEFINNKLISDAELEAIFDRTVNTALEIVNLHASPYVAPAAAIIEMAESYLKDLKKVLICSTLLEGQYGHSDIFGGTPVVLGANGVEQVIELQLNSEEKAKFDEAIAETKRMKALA
PROCEDURE_SUMMARY: PfLDH activity inhibition – cell lysate, 3D7 strain, counter-screen for P. falciparum growth inhibition project (AID 2304);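 note: 0% = vehicle and 100% = reference inhibitor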
STUDY_CONDITIONS: P. falciparum 3D7 crude extract, LDH APAD/NBT absorbance; at 2 µM; stronger effect = higher value
PROPERTY_LABEL: inhibition (%)
Express the result in % but write the number alone.

COMPOUND	EXPERIMENTAL_RESULT
NC1CCN(CCc2ccc(NS(=O)(=O)c3ccc(-c4ccccc4)cc3)cc2)CC1	0
CN(C)CCOc1cc(NC(=O)Nc2cccc3c(-c4ccncc4)cccc23)ccc1I	0
COc1ccccc1NC(=O)OC(COc1ccc(N)cc1)CN1CC=C(c2ccccc2)CC1 (stereo not given)	3
Cc1ccc(CN2CCCN(Cc3cccc(NC(=O)c4cc5ccccc5s4)c3)CC2)cc1C	-3

Here's the next entry for you.
Indicate its recorded inhibition; the compound in question is `CCOc1ccc(NC(=O)c2ccc(CN3CCCN(Cc4cccc(O)c4)CC3)cc2)cc1` 0

* * *

Listed below: inhibition values for each entry.
PROCEDURE_SUMMARY: HepG2 cytotoxicity, primary screen, cytotoxicity control for P. falciparum antimalarial project, cell-based, ATP luminescence (AID 2303);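 note: 0% = DMSO wells and 100% = digitonin-killed cells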
STUDY_CONDITIONS: HepG2 viability, 24-48 h, at 10 µM, stronger effect = higher value
Lab book: enter the figure in %, no units written.

Let me know recorded inhibition for `COc1cc(Cc2cnc(N)nc2N)cc(OCCCCCCN2C(=O)c3ccccc3C2=O)c1OC` , thanks. 15

Please indicate inhibition recorded for `CCOc1c(CCNCCCCNCCc2ccc3ccccc3c2OCC)ccc2ccccc12` 100

# return recorded inhibition for entry COc1cccc(Nc2nccc(NCC(O)c3cccc(C(F)(F)F)c3)n2)c1 (configuration not stated) 6

Dear colleague, please send me the reported inhibition for `COc1ccc(NC(=O)N2CCc3ccc(OCCN(C(C)C)C(C)C)cc32)cc1C(F)(F)F` when you can. -1

Return inhibition (reported value) for this molecule: `CCCCOC(=O)c1ccc(NC(=O)Nc2ccc(Cn3ncc(N4CCCNCC4)c(Cl)c3=O)cc2)cc1` 2

Given Cc1cccc2[nH]c(-c3cccc(-c4cccc(NC(=O)CC5NC(=O)c6ccccc65)c4)c3)nc12 (configuration not stated) , respond with its inhibition. 8

Supply measured inhibition of `CCOC(=O)c1c(CSc2ccccc2)oc2cc(CN(C)C)c(O)c(Cl)c12` in your reply. 12

* * *

TARGET_OF_ASSAY: L-lactate dehydrogenase (Plasmodium falciparum (isolate CDC / Honduras))
PROCEDURE_SUMMARY: PfLDH activity inhibition – cell lysate, 3D7 strain, counter-screen for P. falciparum growth inhibition project (AID 2304);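 note: 0% = vehicle and 100% = reference inhibitor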
STUDY_CONDITIONS: P. falciparum 3D7 crude extract, LDH APAD/NBT absorbance; at 2 µM; stronger effect = higher value
PROPERTY_LABEL: inhibition (%)
// return numeric value only (unit: %, not printed)

COMPOUND	TARGET_OF_ASSAY	inhibition, %
Cc1ccc(NC(=S)N2CCCN(CCCCCNC(=O)/C=C/c3ccc(Cl)c(Cl)c3)CC2)cc1Cl	L-lactate dehydrogenase (Plasmodium falciparum (isolate CDC / Honduras))	5
NC1CCN(Cc2cccc(-c3ccc(-c4nc5ccccc5[nH]4)s3)c2)C1 (configuration not stated)	L-lactate dehydrogenase (Plasmodium falciparum (isolate CDC / Honduras))	-1
Cc1cn(CC(=O)Nc2cccc(-c3cccc(-c4nc5c(C)cccc5[nH]4)c3)c2)c(=O)[nH]c1=O	L-lactate dehydrogenase (Plasmodium falciparum (isolate CDC / Honduras))	5
COc1ccccc1N1CCN(Cc2c(NC(C)=O)sc(C)c2C)CC1	L-lactate dehydrogenase (Plasmodium falciparum (isolate CDC / Honduras))	3
COc1ccc2nccc([C@@H](O)CN3CCC(NCc4nc5cc(F)c(F)cc5[nH]4)CC3)c2c1	L-lactate dehydrogenase (Plasmodium falciparum (isolate CDC / Honduras))	-1

Supply recorded inhibition for `CN1CCN(c2ccc(-c3cc(-c4cc(F)c(F)c(F)c4)cnc3N)cc2)CC1` here. -4

Return reported inhibition. Input compound: `Cc1cc(N[C@@H](Cc2ccccc2)C(=O)Nc2ccccc2)nc(NCCc2cccnc2)n1` -3

Identify inhibition associated with the compound `CCOc1ccc2nc(C)cc(NN=Cc3ccccc3Cl)c2c1` -4

* * *

TARGET_OF_ASSAY: L-lactate dehydrogenase (Plasmodium falciparum (isolate CDC / Honduras)) (UniProt Q27743)
PROCEDURE_SUMMARY: PfLDH activity inhibition – cell lysate, 3D7 strain, counter-screen for P. falciparum growth inhibition project (AID 2304);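 note: 0% = vehicle and 100% = reference inhibitor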
STUDY_CONDITIONS: P. falciparum 3D7 crude extract, LDH APAD/NBT absorbance; at 2 µM; stronger effect = higher value
PROPERTY_LABEL: inhibition (%)
Field: numeric (%). Do not append units.

Illustrative cases are given below, each with its answer.
COMPOUND	UNIT_NAME	inhibition
O=C(Cc1ccc(NC(=O)c2ccc(O)c(-c3cccc([N+](=O)[O-])c3)c2)cc1)NCCN1CCCCC1	%	4
Cc1c(C)c2c(c(C)c1O)CC[C@](C)(C(=O)N1CCC(CCN3CCC(c4c[nH]c5ccccc45)CC3)CC1)O2	%	0
CCCc1cc(=O)oc2cc(OC)c(C(=O)CC(C)C)c(OC)c12	%	2
CN(C)CCNCc1ccc(-c2ccc(-c3nc4ccc(F)cc4[nH]3)cc2)cc1	%	-4
COCCNCc1cccc(-c2cccc(CNC3CCN(Cc4ccccc4)CC3)c2)c1	%	-4

For the compound O=C(Nc1cccc(C(F)(F)F)c1)c1cccc(S(=O)(=O)NC2CCCN(CC3CCCCC3)C2)c1 (centres undefined) , report inhibition. 1

Name the recorded inhibition of the item `CCNc1cc(CCCC(=O)OCC)nc(Nc2ccc(C)cc2)n1` in your answer. -4

Look up inhibition of `O=c1[nH]c2c(c(O)c1[N+](=O)[O-])CCC2` and report it. -5

State its inhibition: `O=C(/C=C/c1ccc(Cl)c(Cl)c1)NCCCN1CCC(c2c[nH]c3ccccc23)CC1` -4

Answer with reported inhibition of `COc1ccc2nc(C)cc(Nc3ccc(Oc4ccc(Cl)cc4)c(Cl)c3)c2c1` -2

Answer with the recorded inhibition of `COC(=O)c1ccc(NC(=O)c2ccc(CCN3CCC(c4nc(COCC(F)(F)F)c(-c5ccc(F)cc5)o4)CC3)cc2)cc1` only. -5

Entry `Cc1nc2nc(N)nc(N)c2c(C)c1Cc1cccc(C#N)c1` needs its inhibition filled in; supply it. 1

Identify the reported inhibition for the following entry. `O=C(NCCCCN1CCC(c2ccc3c(c2OCCCO)CCCC3)CC1)c1ccc(-c2ccc(C(F)(F)F)cc2)cc1` 1

Please report inhibition for the following compound: `Cc1cc(-c2nc3ccc(N4CCN(C)CC4)cc3[nH]2)nn1Cc1cc(Cl)ccc1OCC(C)C` 1

Report measured inhibition; entry is `CC(C)(C)c1ccc(NC(=O)c2cccc(CN3CCCN(Cc4cccc(O)c4)CC3)c2)cc1` 4

Report measured inhibition; entry is `FC(F)(F)c1ccc2nccc(NN=Cc3cccnc3)c2c1` -8

Tell me inhibition reported for `CC(C)NCc1cccc(-c2ccc(-c3nc4ccccc4[nH]3)cc2)c1` -2

Read off the recorded inhibition for `O=C(Cc1ccc(NC(=O)c2ccc(O)c(-c3ccc(Cl)c(Cl)c3)c2)cc1)NCCN1CCOCC1` 4

* * *

TARGET_OF_ASSAY: Calcium-dependent protein kinase 4 (Plasmodium falciparum (isolate 3D7))
PROCEDURE_SUMMARY: PfCDPK4 kinase inhibitors, biochemical, TCAMS library (AID 1159588)
STUDY_CONDITIONS: recombinant PfCDPK4, Kinase-Glo ATP depletion luminescence
Measured potencies and affinities stand elsewhere. Activity calls are given as the source filed them. The limit is not given here; nearly all actives have IC50 up to about 0.91 µM.
PROPERTY_LABEL: outcome

Below: 5 compounds and their reported outcome.
COMPOUND	TARGET_OF_ASSAY	EXPERIMENTAL_RESULT
O=C(Nc1cccnc1)c1cc(-c2cc(Cl)ccc2O)n[nH]1	Calcium-dependent protein kinase 4 (Plasmodium falciparum (isolate 3D7))	inactive
COc1cc(-n2c(CN3CCCC3)nc3cc(-c4ccc(Cl)cc4)sc3c2=O)ccc1OCCN1CCCC1	Calcium-dependent protein kinase 4 (Plasmodium falciparum (isolate 3D7))	inactive
CN1CCN(Cc2cccc(-c3cc4nccc(Nc5ccc(Oc6ccccc6)cc5)c4cc3Cl)c2)CC1	Calcium-dependent protein kinase 4 (Plasmodium falciparum (isolate 3D7))	inactive
O=C(COc1ccc(Cl)c(Cl)c1)NCCCCCN1CCCN(C(=O)Nc2ccc(Cl)c(Cl)c2)CC1	Calcium-dependent protein kinase 4 (Plasmodium falciparum (isolate 3D7))	inactive
c1ccc(-c2cc3cccc(-c4nc5ccncc5[nH]4)c3o2)cc1	Calcium-dependent protein kinase 4 (Plasmodium falciparum (isolate 3D7))	inactive

Determine from records and report outcome for `Cc1cc(N2CCCC2)nc(Nc2ccc(NC(=O)c3ccc4c(c3)OCO4)cc2)n1` inactive

State its outcome for this compound: `Cc1nc2c(c(C)nn2C(C)(C)C)c(C)c1CCC(=O)Nc1ccc(CN2CCCC2)cc1` inactive

Please give measured outcome of the following entry: `Nc1c2ccccc2nc2cc([N+](=O)[O-])ccc12` inactive

Indicate its recorded outcome; the compound in question is `COc1cc2c(cc1OC)CN(CCCCNC(=O)c1ccc(NC(=O)c3cc(Cl)cc(Cl)c3)cc1)CC2` inactive

State its outcome: `Fc1ccc2nc(-c3ccc(-c4ccc(CNCCc5ccncc5)cc4)cc3)[nH]c2c1` inactive

Input `COc1ccc2c(NN=Cc3ccc(Cl)cc3)ccnc2c1` , output reported outcome. inactive

Give the value of outcome reported for the following: `O=[N+]([O-])c1cccc(NC(=S)N2CCCN(Cc3ccc(Cl)cc3Cl)CC2)c1` inactive

Identify measured outcome corresponding to CCCNS(=O)(=O)c1ccc(NC(=O)C(C)Oc2ccc([N+](=O)[O-])cc2)cc1 (stereo not given) inactive

Query outcome for `O=C(CNC1=NCCN1)Nc1ccc(NC(=O)Nc2ccc(NC(=O)CNC3=NCCN3)cc2)cc1` inactive

Give the measured outcome for CC12CCC(=O)N1C(C(=O)Nc1cccc(C(=O)Nc3cccc(C(F)(F)F)c3)c1)CS2 (stereo not given) inactive

Please report the measured outcome for `COc1c(C=NNc2nc(Nc3ccccc3)nc(Nc3ccccc3)n2)ccc(Br)c1O` inactive

Give outcome for the following compound: `Cc1cc(N[C@@H](CC(C)C)C(=O)Nc2ccccc2)nc(NCc2ccccc2C)n1` inactive

Let me know recorded outcome for `CC(=O)N(Cc1nc(-c2cc(C(F)(F)F)cc(C(F)(F)F)c2)cs1)c1c(C)cccc1C` , thanks. inactive

Please report the measured outcome for COc1ccc(CC(C)CON2C(N)=NC(N)=NC2(C)C)cc1 (stereo not given) inactive

Give the measured outcome for `Clc1ncccc1-c1nc(NCCC(c2ccccc2)c2ccccc2)no1` inactive

Input `COc1cc(N)cc2sc(N)nc12` , output reported outcome. inactive

Give the reported value of outcome for this record: C=CCN1C(=O)C(C(C)=O)=C(O)C1c1ccccc1 (stereo not given) inactive

Given `O=C(Oc1ccc(Cl)cc1C(=O)Nc1ccc([N+](=O)[O-])cc1Cl)c1ccccc1` , respond with its outcome. inactive

Using the record for `COc1ccc(CCN(C)CCCN2CCC(NC(=O)c3cccc4c(=O)c5ccccc5[nH]c34)CC2)cc1OC` , state its measured outcome. inactive

Return outcome (reported value) for this compound: `O=c1cc(NCCCNCc2sc(Br)nc2Br)[nH]c2ccccc12` inactive

Name the recorded outcome of the item CC(NC(=O)c1ccc(O)c(-c2ccc(Cl)c(Cl)c2)c1)C(=O)NCCN1CCCC1 (stereo not given) in your answer. inactive

Annotate the compound `COc1ccccc1/C=C/C(=O)N(C)C1CCN(CCCCCNC(=O)/C=C/c2ccc(Cl)c(Cl)c2)CC1` with its measured outcome. inactive

Item `Oc1ccccc1N1CCN(c2ccc(-c3nc4ccccc4[nH]3)cn2)CC1` : provide outcome inactive

Answer with the recorded outcome of `CCc1nc(N)nc(N)c1-c1ccc(C(C)C)cc1` only. inactive
